Taken from the RNAGym collection of RNA variant scans (doi:10.1073/pnas.2313332121).

B1: TPR t1 (parent)
chain: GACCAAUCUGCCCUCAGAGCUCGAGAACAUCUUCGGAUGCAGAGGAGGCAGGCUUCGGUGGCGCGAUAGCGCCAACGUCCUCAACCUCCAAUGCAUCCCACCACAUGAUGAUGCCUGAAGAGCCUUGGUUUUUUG

# Variants of: B1
# protocol-description: polymerase ribozyme fitness, log enrichment relative to wild type (log ratio); higher = more active; in vitro selection for triplet polymerase activity
If the reported polymerase ribozyme fitness (log ratio) equals or exceeds -3, assign 1 (yes). If not, assign 0 (no).

A selection of reference data follows.
U9C A41C A91C	1 (yes)
C34G C73A U116A A121U	0 (no)
C86U G117A	1 (yes)

In the following, a different variant is considered.
Query :: In plain terms: is recorded polymerase ribozyme fitness (log ratio) at least -3 for C12A G48A U55C G57U U59G C85U ?
Result :: 0 (no)
